The measurements presented in this section are drawn from patent US9464064B2.

- SUBJECT_OF_TEST: HCV NS3 helicase NS3h_1b(con1) (Hepatitis C virus genotype 1b)
- Construct: truncated C-terminally His-tagged NS3 proteins lacking the N-terminal protease, called NS3h; His-tag (C); made in house
- Sequence (Q9WMX2 1192-1657): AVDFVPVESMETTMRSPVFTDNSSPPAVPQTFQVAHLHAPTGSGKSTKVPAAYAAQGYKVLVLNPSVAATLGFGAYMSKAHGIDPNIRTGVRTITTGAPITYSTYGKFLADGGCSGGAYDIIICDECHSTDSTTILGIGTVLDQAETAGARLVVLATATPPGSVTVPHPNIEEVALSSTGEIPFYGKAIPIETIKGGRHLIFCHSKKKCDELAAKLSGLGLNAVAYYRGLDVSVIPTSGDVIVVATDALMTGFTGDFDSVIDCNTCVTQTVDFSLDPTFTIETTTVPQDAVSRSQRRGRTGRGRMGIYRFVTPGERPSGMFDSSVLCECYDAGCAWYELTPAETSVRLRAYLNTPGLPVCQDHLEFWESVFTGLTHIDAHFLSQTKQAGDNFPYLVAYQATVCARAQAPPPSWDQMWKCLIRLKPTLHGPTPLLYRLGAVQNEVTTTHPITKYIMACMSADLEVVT
- ASSAY_DETAILS: MBHA screen of NCI mechanistic set library at 20 μM (percent inhibition, compound interference)
- Assay type: biochemical
- CONDITION_SUMMARY: compounds at 20 μM, MBHA with DNA substrate; assay interference calculated with Equation 2
REPORTED_METRIC: Int.* (Ratio) (Interference)

[
  {
    "MOLECULE": "COc1ccc2c(c1[N+](=O)[O-])CC[C@@H]1[C@@H]2CC[C@]2(C)C(=O)CC[C@@H]12",
    "Int.* (Ratio) (Interference)": 1.02
  },
  {
    "MOLECULE": "CC(C)[Si]1(C(C)C)OCC2OC(n3cnc4c(N)ncnc43)C(N)C2O[Si](C(C)C)(C(C)C)O1 (centres unmarked)",
    "Int.* (Ratio) (Interference)": 0.91
  },
  {
    "MOLECULE": "S=C1Nc2cnc3ccccc3c2SC1c1ccccc1 (centres unmarked)",
    "Int.* (Ratio) (Interference)": 0.89
  },
  {
    "MOLECULE": "CN(CO)c1nc(N(C)CO)nc(N(C)CO)n1",
    "Int.* (Ratio) (Interference)": 1.08
  },
  {
    "MOLECULE": "N#CC(C#N)=Cc1cccc(Oc2ccccc2)c1",
    "Int.* (Ratio) (Interference)": 1.08
  },
  {
    "MOLECULE": "CC(=O)/C(=C\\c1cccc([N+](=O)[O-])c1)C(=O)Nc1ccccc1C",
    "Int.* (Ratio) (Interference)": 0.85
  },
  {
    "MOLECULE": "O=c1cccccc1O",
    "Int.* (Ratio) (Interference)": 0.93
  },
  {
    "MOLECULE": "C=C(C)[C@@H]1CC[C@]2(CO)CC[C@]3(C)[C@H](CC[C@@H]4[C@@]5(C)CC[C@H](O)C(C)(C)[C@@H]5CC[C@]43C)[C@@H]12",
    "Int.* (Ratio) (Interference)": 1.32
  },
  {
    "MOLECULE": "Cc1c2c(cc3c1[nH]c1ccccc13)C=NCC2",
    "Int.* (Ratio) (Interference)": 1.00
  },
  {
    "MOLECULE": "NC1N=C(c2ccc(Cl)cc2)C2=C(N1)c1ccccc1CC2 (centres unmarked)",
    "Int.* (Ratio) (Interference)": 0.97
  },
  {
    "MOLECULE": "O=[N+]([O-])c1cc(C(F)(F)F)cc2n[se]nc12",
    "Int.* (Ratio) (Interference)": 0.92
  },
  {
    "MOLECULE": "O=C1c2cccc(O)c2C(=O)c2c(O)cccc21",
    "Int.* (Ratio) (Interference)": 0.97
  },
  {
    "MOLECULE": "CC(=O)c1sc2[n+](c1C)C(=O)/C(=C\\c1ccccc1Cl)S2",
    "Int.* (Ratio) (Interference)": 0.90
  },
  {
    "MOLECULE": "O=C(CC(=O)c1ccccc1NC1=Cc2ccccc2C(=O)C1=O)C(=O)NC1=C(Cl)C(=O)c2ccccc2C1=O",
    "Int.* (Ratio) (Interference)": 0.89
  },
  {
    "MOLECULE": "Cc1ccc(/C=C2\\CNC/C(=C\\c3ccc(C)cc3)C2=O)cc1.Cl",
    "Int.* (Ratio) (Interference)": 0.87
  },
  {
    "MOLECULE": "C[C@H](CSC(=O)c1ccccc1)C(=O)N1c2ccccc2C[C@H]1C(=O)O",
    "Int.* (Ratio) (Interference)": 1.08
  },
  {
    "MOLECULE": "O=C(C[n+]1ccc2ccccc2c1)c1ccc2ccc3ccccc3c2c1",
    "Int.* (Ratio) (Interference)": 1.04
  }
]
